# SYSTEM_UNDER_TEST: Bac-F (UniProt P03420 26-524)
# Sequence (P03420 26-524): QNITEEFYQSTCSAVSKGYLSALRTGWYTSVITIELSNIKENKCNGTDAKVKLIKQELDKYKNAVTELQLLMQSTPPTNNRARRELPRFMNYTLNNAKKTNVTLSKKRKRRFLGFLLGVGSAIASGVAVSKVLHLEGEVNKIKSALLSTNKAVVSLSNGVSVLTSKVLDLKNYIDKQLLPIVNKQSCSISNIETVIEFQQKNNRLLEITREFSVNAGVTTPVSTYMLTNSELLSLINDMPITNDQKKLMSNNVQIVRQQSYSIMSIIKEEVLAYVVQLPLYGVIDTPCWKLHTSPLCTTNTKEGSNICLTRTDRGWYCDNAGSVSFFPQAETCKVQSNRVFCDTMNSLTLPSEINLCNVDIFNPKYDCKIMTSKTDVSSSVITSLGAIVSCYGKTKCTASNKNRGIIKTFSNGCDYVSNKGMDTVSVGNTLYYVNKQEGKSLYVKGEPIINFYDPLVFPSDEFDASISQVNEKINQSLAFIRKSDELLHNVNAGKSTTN
# MEASUREMENT_DESCRIPTION: BIAcore, Mab vs Bac-F, 1:1
Measured kon by item
REPORTED_PROPERTY: kon (M⁻¹ s⁻¹)

{"BINDER": "A1e9 (monoclonal antibody) (antibody, V domains shown) VH: QVTLRESGPALVKPTQTLTLTCTFSGFSLSTAGMSVGWIRQPPGKALEWLADIWWDGKKHYNPSLKDRLTISKDTSKNQVVLKVTNMDPADTATYYCARDMIFNWYFDVWGQGTTVTVSS VL: DIQMTQSPSTLSASVGDRVTITCSLSSRVGYMHWYQQKPGKAPKLLIYDTFKLSSGVPSRFSGSGSGTEFTLTISSLQPDDFATYYCFQGSGYPFTFGGGTKVEIK", "VALUE_MEASURED": 433000}
{"BINDER": "A13c4 (monoclonal antibody) (antibody, V domains shown) VH: QVTLRESGPALVKPTQTLTLTCTFSGFSLSTAGMSVGWIRQPPGKALEWLADIWWDGKKSYNPSLKDRLTISKDTSKNQVVLKVTNMDPADTATYYCARDMIFNFYFDVWGQGTTVTVSS VL: DIQMTQSPSTLSASVGDRVTITCSLSSRVGYMHWYQQKPGKAPKLLIYDTMYQSSGVPSRFSGSGSGTEFTLTISSLQPDDFATYYCFQGSGYPFTFGGGTKVEIK", "VALUE_MEASURED": 300000}

Origin of the recorded values: patent US20020177126A1
